# Test system: MOLT-4 leukemia
# ASSAY: NCI tumour cell line growth inhibition, 48 h
PARAMETER: TGI

{"COMPOUND": "O=[N+]([O-])c1cc(Cl)ccc1S(=O)(=O)c1ccc(Cl)cc1[N+](=O)[O-]", "DATA VALUE": "84.4 µM"}
{"COMPOUND": "N/N=C(/CC(O)(C(F)(F)F)C(F)(F)F)c1ccccc1", "DATA VALUE": "> 10 µM"}
{"COMPOUND": "CCOC(=O)C(C)c1nc2cc(C(F)(F)F)ccc2[nH]c1=O (stereo not given)", "DATA VALUE": "> 100 µM"}
{"COMPOUND": "COc1ccc2c(c1)C(=O)c1c-2n(CCCN=[N+]=[N-])c(=O)c2cc(N)ccc12", "DATA VALUE": "> 100 µM"}
{"COMPOUND": "C=CCN1C(=O)/C(=C/c2ccc(OC)cc2)N=C1SC1OC(COC(C)=O)C(OC(C)=O)C(OC(C)=O)C1OC(C)=O (stereo not given)", "DATA VALUE": "> 100 µM"}
{"COMPOUND": "O=C(c1ccc(Cl)c(Cl)c1)N(C(=O)N1CCN(c2ccccc2)CC1)S(=O)(=O)c1ccccc1", "DATA VALUE": "41.8 µM"}

# input Could you share which TGI value was measured for Cc1ccc2nc(-c3ccc(-c4nc5ccc(C)cc5o4)c(O)c3)oc2c1 ?
# output > 100 µM

# input Could you share which TGI value was measured for Oc1c(Cl)cc(CN(Cc2cc(Cl)c(O)c(Cl)c2)C2CCCCC2)cc1Cl ?
# output > 100 µM

# input Could you share which TGI value was measured for N#Cc1nc(-c2ccc(-c3nc(C#N)c(N)o3)cc2)oc1N ?
# output > 10 µM

# input Could you share which TGI value was measured for CN1C(=O)C(C#N)C2C[C@@]1(C)Oc1ccccc12 (stereo not given in full) ?
# output > 100 µM

# input Could you share which TGI value was measured for O=C1Nc2ccccc2/C1=N/N1C(=O)/C(=C/c2ccccc2S)N=C1c1ccccc1 ?
# output > 100 µM

# input Could you share which TGI value was measured for Oc1ccccc1-c1n[nH]c(-c2ccccc2O)n1 ?
# output > 100 µM

# input Could you share which TGI value was measured for COc1ccc2oc(=O)c(-c3csc(-c4ccccc4)n3)cc2c1 ?
# output > 100 µM

###

# Tested on: 786-0 renal
# ASSAY: NCI tumour cell line growth inhibition, 48 h
PARAMETER: TGI (µM)
Only the number, expressed in µM, is required.

# input Could you share which TGI value was measured for Cc1nc2ccccc2c(=O)n1/N=C(\N=Nc1ccccc1Cl)c1ccccc1 ?
# output 36.7

# input Could you share which TGI value was measured for CNc1cccc2c1C(C)C[C@]1(C)C(=O)Nc3ccccc3[C@H]21 (stereo not given in full) ?
# output 32.9

###

# Tested on: T-47D breast
# ASSAY: NCI tumour cell line growth inhibition, 48 h; in the data active = GI50 below about 0.43 µM; inactive = the rest
Classes to choose from: TRUE = active, FALSE = inactive

{"MOLECULE": "C=C1C(=O)O[C@H]2[C@H]1CC/C(COC(=O)C(=O)c1c[nH]c3ccc(Cl)cc13)=C\\CC[C@@]1(C)O[C@@H]21", "ASSIGNED LABEL": "FALSE"}
{"MOLECULE": "N#CSCC1CC(O)(c2ccccc2)CC(c2ccc(Cl)cc2)O1 (stereo not drawn)", "ASSIGNED LABEL": "FALSE"}
{"MOLECULE": "Cn1ccc2c3c(=O)cc[nH]c3ccc21", "ASSIGNED LABEL": "FALSE"}
{"MOLECULE": "CCCCCCCCc1ccc(CCC(N)(CO)CO)cc1", "ASSIGNED LABEL": "FALSE"}
{"MOLECULE": "CSC(=NC#N)S/C=C/C(=O)c1cccc2ccccc12", "ASSIGNED LABEL": "FALSE"}

# input Would you mind telling me which call this test gave C=C1[C@@H](O)C[C@H]2C(C)(C)C[C@H](Cl)C[C@]2(C)[C@H]1C[C@H](O)[C@H]1CC(=O)NC1=O ?
# output TRUE

# input Would you mind telling me which call this test gave CNC12C3C4C1C1C2C3C41C(=O)N[C@H](C(=O)N(C)[C@H](C[C@@H](OC(C)=O)c1nc(C(=O)N[C@@H](Cc2ccccc2)C[C@H](C)C(=O)OC)cs1)C(C)C)C1CC1 (stereo partly drawn) ?
# output FALSE

# input Would you mind telling me which call this test gave CCCC(=O)O[C@]1(C)CC[C@@H]2[C@H]3[C@@H]1[C@@H]1C/C(C)=C\CC[C@](C)(OC(=O)[C@@H]2C)[C@H]3O1 ?
# output FALSE

###

In this section we review reported TGI values for a set of molecules.
# Tested on: OVCAR-4 ovarian
# ASSAY: NCI tumour cell line growth inhibition, 48 h

{"MOLECULE": "CC1(C)CC2C(/C1=N/O)C1(C)CCCC2(C)C1O (stereo not drawn)", "TARGET SYSTEM": "OVCAR-4 ovarian", "DATA VALUE": "> 100 µM"}

# input Provide the documented TGI with OVCAR-4 ovarian as the system for O=C(/C=C/c1ccccc1Br)c1ccccc1
# output 6.03 µM

# input Provide the documented TGI with OVCAR-4 ovarian as the system for O=c1[nH]cc(COCC(O)CO)c(=O)[nH]1 (stereo not drawn)
# output > 100 µM

###

In this section we review reported TGI values for a set of compounds.
# Test system: HL-60(TB) leukemia
# ASSAY: NCI tumour cell line growth inhibition, 48 h

# input Could you share which TGI value was measured for COc1ccc(C(c2cc(OC)c(OC)c(OC)c2)N2C(=O)CCC2C(=O)O)cc1 (centres undefined) ?
# output > 100 µM

###

# Test system: U251 CNS
# ASSAY: NCI tumour cell line growth inhibition, 48 h
PARAMETER: TGI

{"COMPOUND": "N#CCCN(CCCN(C(=O)Nc1ccc(NC(=O)N(CCCN(CCC#N)C(N)=O)c2ccccc2)cc1)c1ccccc1)C(N)=O", "TGI": "> 100 µM"}
{"COMPOUND": "O=C(c1ccccc1)c1ccc(O)c2ncccc12", "TGI": "26.2 µM"}
{"COMPOUND": "C=C(C)CCN(C(=O)OC(C)(C)C)c1cc(C(C)C)co1", "TGI": "> 100 µM"}

# input Could you share which TGI value was measured for CC1(C)Cc2nnsc2C2=C1C(=O)CCS2 ?
# output > 100 µM

# input Could you share which TGI value was measured for COc1ccc(C2CC(c3cccc(OC)c3)=NN2C(=O)c2cc(OC)c(OC)c(OC)c2)cc1 (stereo not given) ?
# output > 100 µM

# input Could you share which TGI value was measured for COC(=O)/C=C/c1ccc2c(c1)[C@H](C(=O)OC)[C@@H](c1ccc(O)cc1)O2 ?
# output > 100 µM

###

# Test system: HS 578T breast
# ASSAY: NCI tumour cell line growth inhibition, 48 h; in the data active = GI50 below about 0.43 µM; inactive = the rest
Classes to choose from: active, inactive

These solved cases illustrate the format of a correct answer.
{"COMPOUND": "COc1ccccc1Nc1nc2ccccc2c2occc12", "ASSIGNED LABEL": "inactive"}
{"COMPOUND": "CC(=O)N1N=C(c2ccc(Nc3nc(Nc4ccc(F)cc4)nc(Nc4ccc(Cl)cc4)n3)cc2)CC1c1ccc(N(C)C)cc1 (stereo not drawn)", "ASSIGNED LABEL": "inactive"}
{"COMPOUND": "COc1ccc(Nc2ncc(-c3ccccc3)o2)cc1OC", "ASSIGNED LABEL": "inactive"}
{"COMPOUND": "CNC12C3C4C1C1C2C3C41C(=O)N[C@H](C(=O)N(C)[C@H](C[C@@H](OC(C)=O)c1nc(C(=O)N[C@@H](Cc2ccccc2)C[C@H](C)C(=O)OC)cs1)C(C)C)C1CC1 (stereo partly drawn)", "ASSIGNED LABEL": "active"}
{"COMPOUND": "O=C1c2ccccc2C(=O)c2sc(Nc3ccc(Cl)cc3)nc21", "ASSIGNED LABEL": "inactive"}
{"COMPOUND": "O=C(Nc1cc(C(F)(F)F)cc(C(F)(F)F)c1)Nc1ccc(OCc2nnc(-c3ccc(Cl)cc3)o2)c(F)c1", "ASSIGNED LABEL": "inactive"}
{"COMPOUND": "COC(=O)c1ccc(NC(N)=NCC(C)(C)COc2ccc(C(F)(F)F)cc2)nc1", "ASSIGNED LABEL": "inactive"}

For the next question, use this compound.
# input Would you mind telling me which call this test gave C=C1[C@@H](O)C[C@H]2C(C)(C)C[C@H](Cl)C[C@]2(C)[C@H]1C[C@H](O)[C@H]1CC(=O)NC1=O ?
# output active

###

# Test system: MDA-MB-231 breast
# ASSAY: NCI tumour cell line growth inhibition, 48 h
In this section we review reported TGI values for a set of compounds.
Only the number, expressed in µM, is required.

# input Provide the documented TGI with MDA-MB-231 breast as the system for CN(C)c1cccc(/C=C(\C#N)c2ccccc2)c1
# output 53.7

# input Provide the documented TGI with MDA-MB-231 breast as the system for Cc1ccccc1C1CC(=O)CC(c2ccccc2C)C12C(=O)NC(=S)NC2=O (configuration not stated)
# output 90.1

# input Provide the documented TGI with MDA-MB-231 breast as the system for O=C(NCCNC(=O)c1ccc(F)cc1)Nc1ccc(-n2cc(-c3ccncc3)c(-c3ccc(Cl)c(O)c3)n2)cc1
# output 2.26
